Documented pIC50 across a set of molecules
# study.system: human RAF1 (Homo sapiens (Human), UniProt P04049)
# Sequence (P04049 whole entry): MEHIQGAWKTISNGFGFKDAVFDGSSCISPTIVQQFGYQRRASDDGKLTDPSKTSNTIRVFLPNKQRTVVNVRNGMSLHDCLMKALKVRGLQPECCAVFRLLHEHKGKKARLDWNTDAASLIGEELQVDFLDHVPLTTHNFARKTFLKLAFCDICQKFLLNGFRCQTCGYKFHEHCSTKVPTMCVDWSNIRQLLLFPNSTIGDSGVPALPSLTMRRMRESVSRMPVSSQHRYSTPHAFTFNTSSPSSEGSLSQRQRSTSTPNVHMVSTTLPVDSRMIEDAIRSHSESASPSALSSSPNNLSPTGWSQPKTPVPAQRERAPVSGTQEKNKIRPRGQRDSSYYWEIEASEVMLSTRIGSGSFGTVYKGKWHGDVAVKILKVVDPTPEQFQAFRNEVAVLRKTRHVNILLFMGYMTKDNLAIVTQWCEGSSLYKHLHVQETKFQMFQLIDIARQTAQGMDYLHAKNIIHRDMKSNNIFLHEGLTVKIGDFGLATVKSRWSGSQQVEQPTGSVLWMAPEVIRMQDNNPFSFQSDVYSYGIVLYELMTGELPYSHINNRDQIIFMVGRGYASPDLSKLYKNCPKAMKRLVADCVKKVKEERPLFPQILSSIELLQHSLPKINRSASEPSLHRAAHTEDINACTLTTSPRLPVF
# assay.explanation: Protein kinase assay (radiometric 33P-ATP, MEK1 (K97R) substrate)
# Assay type: biochemical
# condition.notes: read-out: RAF-1 IC50
# Protocol: Protein kinase assay: Assay platform was used to measure kinase/inhibitor interactions as described previously (Anastassiadis et al., 2011). […] The percent remaining kinase activity relative to a vehicle-containing (DMSO) kinase reaction was calculated for each kinase/inhibitor pair. IC50 values were calculated using Prism 5 (GraphPad).
pIC50: −log10 of the molar value.

Worked set:
1) CNc1ncc2cc(-c3cc(NC(=O)N4CC[C@@H](CC(F)(F)F)C4)c(F)cc3C)c(C)nc2n1 [Example 18]; ≥ 8.00
2) [2H]C([2H])([2H])Oc1nc2nc(NC)ncc2cc1-c1cc(NC(=O)c2ccnc(C(F)(F)F)c2)ccc1C [Example 71]; ≥ 8.00

As a next step, examine the molecule that follows.
Inquiry: May I ask what pIC50 has been recorded for CNc1ncc2cc(-c3cc(NC(=O)N4CCO[C@H](C(C)(C)C)C4)c(F)cc3C)c(C)nc2n1 [Example 22] ?
Reply text: ≥ 8.00

====

# study.system: human RAF1 (Homo sapiens (Human))
# assay.explanation: Protein kinase assay (radiometric 33P-ATP, MEK1 (K97R) substrate)
# Type: biochemical
# condition.notes: read-out: RAF-1 IC50
# Procedure: Protein kinase assay: Assay platform was used to measure kinase/inhibitor interactions as described previously (Anastassiadis et al., 2011). […] The percent remaining kinase activity relative to a vehicle-containing (DMSO) kinase reaction was calculated for each kinase/inhibitor pair. IC50 values were calculated using Prism 5 (GraphPad).
metric.name: IC50

Solved cases below.
1) [2H]C([2H])([2H])Nc1ncc2cc(-c3cc(NC(=O)c4ccnc(C(F)(F)F)c4)ccc3C)c(C)nc2n1 [Example 43]; ≤ 10 nM
2) CNc1ncc2cc(-c3cc(NC(=O)N4CCO[C@@H](C(C)(C)C)C4)c(F)cc3C)c(C)nc2n1 [Example 23]; ≤ 10 nM
3) CNc1ncc2cc(-c3cc(NC(=O)N4CC[C@H](SC(F)(F)F)C4)ccc3C)c(C)nc2n1 [Example 5]; 10 to 100 nM

Turning now to a further record.
Inquiry: What is its IC50 for human RAF1 (Homo sapiens (Human))? Entry: [2H]C([2H])([2H])c1nc2nc(NC)ncc2cc1-c1cc(NC(=O)c2ccnc(C(F)(F)F)c2)ccc1C [Example 74]
Reply text: ≤ 10 nM
